Task for the reader: assign each of the following compounds its reported Activity.
# System: Oryza sativa
# test-details: Phytotoxicity against Oryza sativa (rice) plant at two to four-leaf growth stage at 50 g/ha measured after 13 days under green house conditions
# Type: organism-based
# condition-label: in vivo, 312 h
One number for each entry, in %.

Dear colleague, could you send me Activity for each of the items below? Thanks.
1. CCOC(=O)C(C)Oc1ccc(Oc2cnc3cc(Cl)ccc3n2)cc1 (racemic)
2. COC(=O)C(C)Oc1ccc(N(C)c2nnc3cc(Cl)ccc3n2)cc1 (racemic)

70
85

Dear colleague, could you send me Activity for each of the items below? Thanks.
1. CCCCOC(=O)C(C)Oc1ccc(Oc2ccc(C(F)(F)F)cn2)cc1 (racemic)
2. CCOC(=O)C(C)Oc1ccc(Oc2nc3ccc(Cl)cc3o2)cc1 (racemic)
3. CCOC(=O)C(C)Oc1ccc(N(C)c2ncc3cc(Cl)ccc3n2)cc1 (racemic)

1. 50
2. 70
3. 35
